- EXPERIMENTAL_TARGET: Amyloid-beta precursor protein (Homo sapiens)
- Sequence (P05067 whole entry): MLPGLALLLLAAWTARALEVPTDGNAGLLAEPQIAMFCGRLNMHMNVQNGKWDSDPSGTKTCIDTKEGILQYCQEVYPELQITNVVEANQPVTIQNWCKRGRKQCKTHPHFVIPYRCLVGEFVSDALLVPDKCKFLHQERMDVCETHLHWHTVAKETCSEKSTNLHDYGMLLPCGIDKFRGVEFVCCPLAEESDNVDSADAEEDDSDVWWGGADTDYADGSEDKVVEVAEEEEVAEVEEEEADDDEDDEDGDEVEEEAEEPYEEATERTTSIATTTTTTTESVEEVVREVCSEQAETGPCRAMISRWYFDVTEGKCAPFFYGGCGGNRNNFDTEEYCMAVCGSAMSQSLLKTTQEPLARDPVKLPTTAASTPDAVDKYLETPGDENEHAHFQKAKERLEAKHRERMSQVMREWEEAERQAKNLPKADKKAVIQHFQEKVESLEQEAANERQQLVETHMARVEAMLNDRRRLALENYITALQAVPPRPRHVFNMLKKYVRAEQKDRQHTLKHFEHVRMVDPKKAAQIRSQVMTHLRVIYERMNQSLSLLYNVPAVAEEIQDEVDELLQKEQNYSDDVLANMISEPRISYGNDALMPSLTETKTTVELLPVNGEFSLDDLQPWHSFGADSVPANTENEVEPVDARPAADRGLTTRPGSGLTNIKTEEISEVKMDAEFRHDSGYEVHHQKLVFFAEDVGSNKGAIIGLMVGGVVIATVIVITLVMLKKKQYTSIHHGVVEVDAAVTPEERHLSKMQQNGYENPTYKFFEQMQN
- ASSAY_EXPLANATION: Inhibition of human amyloid beta (1 to 40) fibrillization at 100 uM measured every 15 mins by Thioflavin-T fluorescence assay relative to control
Active and inactive are the calls of the source. The rule behind the calls is not given here.
REPORTED_PROPERTY: inhibition

* CCNC(=O)c1cc(C(=O)O)c(NCc2ccco2)cc1Cl | 24.6%
* O=C(O)c1cc(S(=O)(=O)NCCc2ccccc2)c(Cl)cc1NCc1ccco1 | inactive
* COc1ccc(C(O)C(F)(F)F)c(NCc2cscn2)c1 (stereo not drawn) | 6.49%
* O=C(O)c1cc(S(=O)(=O)NCc2ccccc2)c(Cl)cc1NCc1ccco1 | 11.8%

### Prompt Given the compound "O=C(O)c1cc(S(=O)(=O)NC2CCCCC2)c(Cl)cc1NCc1ccco1" , what is its reported inhibition?
### Response 11.3%
